Hi there, I'd appreciate the recorded GI50 for every entry that follows.
Tested on: DU-145
Assay: NCI tumour cell line growth inhibition, 48 h
Active and inactive are the calls of the source. No stated cut-off is given here; in the data, active = GI50 up to about 1.1 µM and inactive = higher.

Bench note, DU-145: entry Cc1c(C(C)C)cc(OCCO)cc1C(C)C , its GI50 = 73.6 µM (inactive)

Param item: CC(=O)Oc1ccc2c(c1)c1c(=O)oc(C)nc1n2Cc1ccccc1 ; param system: DU-145; output GI50: > 55.7 µM (inactive)

Readout GI50 for Cc1cc(/N=C/c2c(CO)cnc(C)c2O)c(/N=C/c2c(CO)cnc(C)c2O)cc1C , test system DU-145, was > 100 µM (inactive)

Kindly note: DU-145, COC(=O)C(Cc1c(-c2[nH]c3ccccc3c2CC(NC(C)=O)C(=O)OC)[nH]c2ccccc12)NC(C)=O (stereo unspecified) , GI50 value reported: > 100 µM (inactive)

// compound CSc1ccc(/C=C/c2ccnc3ccccc23)cc1 , assay DU-145, GI50 value: 13.9 µM (inactive)

Value sought: GI50, system DU-145, item CC1=NN(c2ccccc2)C(=O)/C1=C/c1ccc(O)cc1 . Result: > 100 µM (inactive)

Case CS/C(N)=N/c1cccc2ccccc12 , DU-145, GI50 recorded as > 10 µM (inactive)

Measured GI50 (DU-145), entry CC1(C)N=C(/C(C#N)=[N+](/[O-])C(=O)c2ccccc2)C(C)(C)N1O : > 100 µM (inactive)

Fill in: DU-145 GI50 for O=C1OC2(CCCCC2)C(Oc2ccc(Cl)cc2)=C1F = 92.9 µM (inactive)

The measured GI50 that O=C1OCN(c2ccccc2)C12CCN(Cc1ccccc1)CC2 showed for DU-145 is 66.4 µM (inactive)

Entry CCOC(=O)c1ccc(NC(=O)O/N=C(/Cl)CC)cc1 , tested on DU-145, has a reported GI50 of 17.4 µM (inactive)

###

Test system: DU-145
Assay: NCI tumour cell line growth inhibition, 48 h
Calls of active or inactive are those of the source. Cut-off read from the data, not from the text of the source: active = GI50 up to about 1.1 µM and inactive = higher.
Just give me one of these, please: TRUE = active, FALSE = inactive

*Q* Record lookup: outcome of this test for COc1ccccc1/N=N/C(=N\NC(=O)c1ccc(C)cc1)c1ccc(N(CCC#N)CCC#N)cc1C ?
*A* FALSE

*Q* Answer briefly: the call reported for O=C(CSCC(=O)N/N=C\c1ccccc1F)N/N=C\c1ccccc1F in this assay.
*A* FALSE

*Q* Any idea what this test logged for O=[N+]([O-])c1cccc(/N=C2\c3ccccc3CN2c2cccc([N+](=O)[O-])c2)c1 ?
*A* FALSE

*Q* # outcome recorded in this test, key = C[n+]1ccccc1/C1=c2\cc/c([nH]2)=C(\c2cccc[n+]2C)C2=N/C(=C(/c3cccc[n+]3C)C3C=CC(N3)/C(c3cccc[n+]3C)=C3/C=CC1=N3)C=C2
*A* FALSE

*Q* Look up the recorded call for CN(C)c1ccc(/C=N/CC2CCCN3CCCCC23)cc1 (configuration not stated) in this test.
*A* FALSE

*Q* Dear all, I need the recorded test outcome for C=C(Br)CN(C(C)=O)C1CCCCC1 , thank you.
*A* FALSE

*Q* Per the assay record, what outcome was assigned to COc1cc([C@@H]2c3cc4c(cc3C[C@H]3COC(=O)[C@@H]32)OCO4)cc(OC)c1OC ?
*A* TRUE

*Q* Can you look up the reported call for Cc1ccc(S(=O)(=O)NNC(=O)c2cc(C)c(C)cc2N)cc1 for me?
*A* FALSE

*Q* Could you kindly confirm the outcome this assay logged for COc1ccc(-n2c(C)nc3ccc(/N=C/c4ccccc4)cc3c2=O)cc1 ?
*A* FALSE

*Q* Please state the recorded outcome for this compound: CC1=CN(c2ccccc2)S2=C1c1sc3c(c1N2c1ccc(Br)cc1)CCCC3 (configuration not stated)
*A* FALSE

*Q* Tell me the assay call for Cc1coc2c1C[C@@]1(C)[C@H](CCC[C@@H]1C)[C@H]2O please.
*A* FALSE

*Q* Recorded call for O=c1cc(-c2ccccc2)oc2c(-c3cc(Cl)cc4c(=O)cc(-c5ccccc5)oc34)cc(Cl)cc12 ?
*A* FALSE

*Q* Status in this test for NC(=O)c1ncn2c1CNC(=O)C2 ?
*A* FALSE

*Q* Dear colleague, could you share the recorded outcome for CC(C)CCNC(=O)c1ccc(CNC(=O)/C=C/c2csc(-c3ccccc3)n2)cc1 when you have a moment?
*A* FALSE

*Q* Which result was noted for this compound in the test: COc1cc(OC)nc(Nc2c(C#N)c3nc4ccccc4n3c3ccccc23)n1
*A* FALSE

*Q* Which outcome was assigned to CN(CCCNC(=O)c1c2ccc3ccccc3c2nn1C)CCCNC(=O)c1c2ccc3ccccc3c2nn1C in this test?
*A* FALSE

*Q* Assay outcome for COc1ccc(/C=C2\CCC(CN(C)C)C2=O)cc1OC (configuration not stated) : what was it?
*A* FALSE

*Q* Outcome logged for O=S(=O)(c1ccccc1)c1cccc2c1NCCC2 in this assay:
*A* FALSE

*Q* State the result this test recorded for O=C1C=C2CO[C@H]3OC[C@H](O)[C@@H]1[C@@H]23 .
*A* FALSE

*Q* Test call for this compound, please: CCOC(=O)c1cc2ncccc2c2ccccc12
*A* FALSE

*Q* What was the test verdict on CCCCc1ccc(Nc2nc(Cl)c3ncn(COCCOC(C)=O)c3n2)cc1 ?
*A* FALSE

*Q* State the result this test recorded for COC(=O)c1ccc(C(=O)NC(Cc2ccc(Oc3cc(CC(NC(=O)c4ccccc4C(=O)OC)C(=O)OC)ccc3OC)cc2)C(=O)OC)cc1 (configuration not stated) .
*A* FALSE

###

Assign GI50 to each entry below.
Tested on: SK-MEL-5
Assay: NCI tumour cell line growth inhibition, 48 h
Activity calls are given as the source filed them. No stated cut-off is given here; in the data, active = GI50 up to about 1.1 µM and inactive = higher.

Record CC(C)(Br)C(=O)N1CCN(C(c2ccccc2)c2ccccc2)CC1 , field GI50: 61.4 µM (inactive)

Given item N#C/C(=C\n1ccc(=O)[nH]c1=S)C(N)=O , the value recorded as its GI50 is > 100 µM (inactive)

GI50 measured on OCC1OC(N2CCN(C3OC(CO)C(O)C(O)C3O)CC2)C(O)C(O)C1O (stereo unspecified) = > 100 µM (inactive)

Notebook: Cc1nn(-c2ccccc2)c2c1C(c1cc3ccccc3nc1Cl)NC(=O)N2 (stereo unspecified) , GI50 read as 17 µM (inactive)

GET /value?item= CCOC(=O)c1c(C)c(C)n2c1NC(=O)C2 &field=GI50 returns > 100 µM (inactive)

Memo: CN(C)c1nc(Cl)c2c(-c3ccccc3)c(-c3ccccc3)oc2n1 , reported GI50: 41.7 µM (inactive)

###

System: NCI/ADR-RES
Assay: NCI tumour cell line growth inhibition, 48 h
Active and inactive are the calls of the source. No stated cut-off is given here; in the data, active = GI50 up to about 1.1 µM and inactive = higher.
OBSERVED PROPERTY: GI50

So for C/C(=C/CC[C@]1(CO)CC[C@]2(C)[C@H](CC[C@@H]3[C@@]4(C)CC[C@H](OC5OC(CO)C(O)C(O)C5OC5OC(CO)C(O)C(O)C5O)C(C)(C)[C@@H]4CC[C@]32C)[C@H]1O)CO (stereo partly drawn) , the logged GI50 turned out to be > 100 µM (inactive)

Summary for this compound, C[C@@H](C1CC[C@H]2[C@@H]3[C@@H]4O[C@@H]4[C@@]4(O)CC=CC(=O)[C@]4(C)[C@H]3C[C@H](O)[C@]12C)[C@H]1C[C@]2(C)O[C@]2(C)C(=O)O1 (stereo partly drawn) : GI50 is > 100 µM (inactive)

For this compound ( CC(=O)OCC1=CC2OC(=O)C3=COC(OC4OC(CO)C(O)C(O)C4O)C1C32 (stereo not drawn) ), measured GI50 is > 100 µM (inactive)

Briefly, GI50 measured for CC(=O)OCC1OC(n2c(N)c(C#N)c(C)c(C#N)c2=S)C(OC(C)=O)C(OC(C)=O)C1OC(C)=O (stereo not drawn) : > 100 µM (inactive)

The reported value for O=C1Nc2ccccc2/C1=N/Nc1nc(-c2ccc(Br)cc2)cs1 in terms of GI50 is 18 µM (inactive)

Record CCCCS(=O)(=O)CCC(N)C(=O)O (stereo not drawn) . Reported GI50: > 100 µM (inactive)

Please fill in: GI50 reported for O=C1C=C2CO[C@H]3OC[C@H](O)[C@@H]1[C@@H]23 = > 100 µM (inactive)

For this compound ( Cc1coc2c1C[C@@]1(C)[C@H](CCC[C@@H]1C)[C@H]2O ), measured GI50 is 24.3 µM (inactive)

###

Hi there, I'd appreciate the recorded GI50 for every entry that follows.
System: SK-MEL-5
Assay: NCI tumour cell line growth inhibition, 48 h
Active and inactive are the calls of the source. Cut-off read from the data, not from the text of the source: active = GI50 up to about 1.1 µM and inactive = higher.

GI50 recorded for this compound, CC1(C)CC(=O)c2c(-c3ccc(Cl)cc3)c(C#N)c(=S)n(C3OC(CO)C(O)C(O)C3O)c2C1 (stereo not given) , is 15.2 µM (inactive)

// sample COC(=O)N/N=C(\C)CC(=O)Nc1ccc(Cl)cc1 , its GI50 was > 100 µM (inactive)

// recorded GI50 for O=C(O)c1nnsc1-c1ccc(-c2snnc2C(=O)O)cc1 : > 100 µM (inactive)

// sample COc1ccc(/C(=N/NC(N)=O)C(c2ccc(OC)cc2)C2C(=O)Oc3ccccc32)cc1 (stereo not given) , its GI50 was > 100 µM (inactive)

Recorded result, Oc1ccccc1/C=N/c1ccc(Oc2ccc(Cl)cc2)c(Cl)c1 , GI50: 20.8 µM (inactive)
